ASSAY_SYSTEM: T1, human PRLR (Biacore antigen) (human, UniProt P16471 25-234, limits assumed)
T1 construct: The construct injected over captured antibody is not described (a soluble form is likely); also called huPRLR
T1 sequence: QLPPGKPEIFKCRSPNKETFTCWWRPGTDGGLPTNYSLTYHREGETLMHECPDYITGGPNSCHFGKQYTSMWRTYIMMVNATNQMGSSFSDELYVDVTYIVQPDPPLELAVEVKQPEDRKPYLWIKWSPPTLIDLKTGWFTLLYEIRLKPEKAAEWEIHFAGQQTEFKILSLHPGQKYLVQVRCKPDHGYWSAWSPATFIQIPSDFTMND
ASSAY_COMMENT: SPR simultaneous binding; PRLR held by surface mAb Ab39
Record form. Attribute: solution mAb binding, % of PRLR binding. Fill in for each entry.
Numbers only, in %.

Solved entries (count: 2):
Ab30 (antibody, human IgG1, kappa, V domains shown, humanized from Ab5; G1; also called Ab2 HC.1a and Ab2 LC.1a) VH: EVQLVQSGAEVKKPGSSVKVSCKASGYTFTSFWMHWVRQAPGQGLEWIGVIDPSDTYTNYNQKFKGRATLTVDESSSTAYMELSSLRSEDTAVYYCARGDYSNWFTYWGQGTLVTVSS VL: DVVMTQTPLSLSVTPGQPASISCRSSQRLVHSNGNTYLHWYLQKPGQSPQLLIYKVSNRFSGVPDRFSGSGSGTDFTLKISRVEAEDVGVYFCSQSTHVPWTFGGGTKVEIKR :: -2
chAb6 (antibody, human IgG1, kappa, V domains shown, chimeric, murine variable and human G1/kappa constant regions) VH: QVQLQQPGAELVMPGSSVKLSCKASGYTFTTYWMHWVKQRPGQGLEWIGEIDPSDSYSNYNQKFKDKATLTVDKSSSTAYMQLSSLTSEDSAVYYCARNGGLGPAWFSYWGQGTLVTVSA VL: DIVMTQSQKFMSTTVGDRVSITCKASQYVGTAVAWYQQKPGQSPKLLIYSASNRYTGVPDRFTDSGSGTDFTLTISNLQSEDLADYFCQQYSSYPWTFGGGTKLEIKT :: -2

Please turn your attention to the following entry.
Answer with the recorded solution mAb binding, % of PRLR binding of Ab48 (antibody, human IgG1, kappa, V domains shown, humanized from Ab8; G1; also called Ab3 HC.1a and Ab3 LC.1a) VH: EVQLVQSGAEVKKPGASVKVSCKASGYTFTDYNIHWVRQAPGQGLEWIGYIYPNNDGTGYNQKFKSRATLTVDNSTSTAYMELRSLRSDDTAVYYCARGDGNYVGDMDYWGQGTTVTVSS VL: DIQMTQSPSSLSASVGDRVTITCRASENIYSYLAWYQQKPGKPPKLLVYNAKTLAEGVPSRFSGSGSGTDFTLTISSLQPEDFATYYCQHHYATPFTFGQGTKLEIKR only.
-2

These entries and their values trace back to patent US20170022281A1.
